pIC50: −log10 of the molar value.
The listing below reports pIC50 for compounds tested on Glycogen synthase kinase-3 alpha (Homo sapiens, UniProt P49840).
Sequence (P49840 whole entry): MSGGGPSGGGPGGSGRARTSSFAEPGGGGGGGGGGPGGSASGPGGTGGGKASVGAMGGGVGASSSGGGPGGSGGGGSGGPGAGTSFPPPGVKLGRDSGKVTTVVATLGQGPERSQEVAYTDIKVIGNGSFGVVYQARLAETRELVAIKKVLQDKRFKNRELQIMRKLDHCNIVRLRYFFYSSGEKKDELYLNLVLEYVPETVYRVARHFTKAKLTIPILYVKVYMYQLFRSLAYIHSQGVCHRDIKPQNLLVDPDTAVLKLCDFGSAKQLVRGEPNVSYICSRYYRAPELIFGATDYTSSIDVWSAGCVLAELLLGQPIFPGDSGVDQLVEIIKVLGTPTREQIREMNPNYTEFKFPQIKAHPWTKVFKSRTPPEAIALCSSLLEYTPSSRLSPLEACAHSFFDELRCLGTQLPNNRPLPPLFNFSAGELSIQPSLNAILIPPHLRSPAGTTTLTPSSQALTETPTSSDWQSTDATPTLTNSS

Consider the reported pIC50 for these compounds:
C[S@@+]([O-])c1cccc([C@]2(C)C3=C(CC(C)(C)CC3=O)NC3=C2C(CC(C)(C)C)N=N3)c1 (stereo partly drawn) [US20250313563, Compound 126191B:] :: < 5.30
C[C@@H]1C[C@]2(CCO1)C1=C(N=NC1)NC1=C2C(=O)CC(C)(C)C1 :: 6.00 to 7.00
CCCc1cc(-c2cccc(C3(CC)C4=CN=NC4NC4=C3C(=O)CC(C)(C)C4)c2)ccn1 (stereo not drawn) :: > 7.00
CC[C@]1(c2cc(N(C)C(C)=O)ccc2F)C2=C(CC(C)(C)CC2=O)NC2N=NC(C)=C21 (stereo partly drawn) :: < 5.30
CCC1(c2cccc(-c3ccnc4c3CCC4)c2)C2=CN=NC2NC2=C1C(=O)CC(C)(C)C2 (stereo not drawn) :: > 7.00

# input Look up and state reported pIC50 for CC[C@@]1(c2cccc(C(F)(F)F)c2)C2=C(CC(C)(C)CC2=O)NC2N=NC(Br)=C21 (stereo partly drawn)
# output 5.30 to 6.00

# input Item CC[C@]1(c2cccc(-c3ccnnc3)c2)C2=CN=NC2NC2=C1C(=O)CC(C)(C)C2 (stereo partly drawn) : provide pIC50
# output < 5.30

----------
assayed system: Glycogen synthase kinase-3 beta (Homo sapiens)
Sequence (P49841 whole entry): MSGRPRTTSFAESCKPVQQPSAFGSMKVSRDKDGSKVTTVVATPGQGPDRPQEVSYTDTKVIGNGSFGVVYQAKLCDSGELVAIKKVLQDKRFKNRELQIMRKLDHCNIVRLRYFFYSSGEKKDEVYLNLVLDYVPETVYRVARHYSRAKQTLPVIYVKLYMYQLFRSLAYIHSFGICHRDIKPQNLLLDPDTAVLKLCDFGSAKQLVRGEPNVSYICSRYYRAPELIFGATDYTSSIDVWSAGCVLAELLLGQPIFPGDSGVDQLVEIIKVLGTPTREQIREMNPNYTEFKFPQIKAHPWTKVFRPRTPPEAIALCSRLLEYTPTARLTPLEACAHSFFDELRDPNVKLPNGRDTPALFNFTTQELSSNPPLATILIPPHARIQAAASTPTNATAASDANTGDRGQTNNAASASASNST
pIC50: −log10 of the molar value.
# pIC50 per entry

CC[C@]1(c2cccc(N3CCC3(C)C)c2)C2=CN=NC2NC2=C1C(=O)CC(C)(C)C2 (stereo partly specified) :: 6.00 to 7.00
COc1ccc(S(=O)(=O)N2CCC[C@@]3(CC2)C2=CN=NC2NC2=C3C(=O)CC(C)(C)C2)cc1 (stereo partly specified) :: 6.00 to 7.00
CC1(C)CC(=O)C2=C(C1)NC1=C(CN=N1)C2(C)c1cc(C(F)(F)F)ccc1F (stereo unspecified) :: 6.00 to 7.00
CC1(C)CC(=O)C2=C(C1)NC1=C(CN=N1)C21CC2(COC2)C1 :: < 5.30
CC[C@]1(c2cccc(N3CCOc4ccccc43)c2)C2=CN=NC2NC2=C1C(=O)CC(C)(C)C2 (stereo partly specified) :: < 5.30

# input Name the recorded pIC50 of the compound listed here: CC[C@@]1(c2cccc(C3=C4CC=CC(C)=C4N=CC3)c2)C2=CN=NC2NC2=C1C(=O)NC(C)(C)C2 (stereo partly specified)
# output 6.00 to 7.00

# input In one line, give reported pIC50 of the entry CC[C@]1(c2cccc(-c3ccnc(O)c3)c2)C2=CN=NC2NC2=C1C(=O)CC(C)(C)C2 (stereo partly specified) .
# output 6.00 to 7.00

# input Provide measured pIC50 value, entry: CC[C@@]1(c2cccc(OCC(F)F)c2)C2=CN=NC2NC2=C1C(=O)CC(C)(C)C2 (stereo partly specified)
# output < 5.30

# input Assign pIC50 to the following record: CCC1(c2cccc(N3CCCC3)c2)C2=CN=NC2NC2=C1C(=O)NC(C)(C)C2 (stereo unspecified)
# output 5.30 to 6.00

# input Provide one value: measured pIC50 of CCC1(c2cccc(N(C)c3ccc(F)nc3)c2)C2=CN=NC2NC2=C1C(=O)CC(C)(C)C2 (stereo unspecified)
# output 6.00 to 7.00

# input Recall and state the measured pIC50 for CCC1(c2cccc(C)c2)C2=CN=NC2NC2=C1C(=O)CC(C)(C)C2 (stereo unspecified) .
# output 6.00 to 7.00

# input Dear colleague, please send me the reported pIC50 for CC(C)(C)CC1N=NC2=C1[C@@](C)(c1cccc(S(=O)(=O)N3CCCC3)c1)C1=C(CC(C)(C)NC1=O)N2 (stereo partly specified) when you can.
# output < 5.30

# input Give pIC50 for the following compound: CC1(C)CC(=O)C2=C(C1)NC1N=NC(CC(F)(F)F)=C1[C@]21CCc2c(F)cccc21 (stereo partly specified)
# output 6.00 to 7.00

# input Look up pIC50 of CN(C)S(=O)(=O)c1cccc([C@]2(C)C3=C(CC(C)(C)CC3=O)NC3=C2C(CC(C)(C)C)N=N3)c1 (stereo partly specified) and report it.
# output 6.00 to 7.00

# input Give the reported pIC50 for this compound. `CC1(C)CC(=O)C2=C(C1)NC1=C(CN=N1)C21CN(S(=O)(=O)c2ccccc2)C1`
# output > 7.00

----------
For reference, IC50 measured on Glycogen synthase kinase-3 alpha (Homo sapiens, UniProt P49840):

CCC1(CCc2ccccc2)C2=C(N=NC2)NC2=C1C(=O)CC(C)(C)C2 (stereo unspecified) [US20250313563, Compound 819563] :: 1000 to 5000 nM

# input Jot down IC50 (Glycogen synthase kinase-3 alpha (Homo sapiens, UniProt P49840)) of CC[C@]1(c2cccc(-c3cnn(C)c3)c2)C2=C(CC(C)(C)NC2=O)NC2N=NC(F)=C21 (stereo partly specified) [US20250313563, Compound 949002] .
# output 1000 to 5000 nM

# input Retrieve IC50 on Glycogen synthase kinase-3 alpha (Homo sapiens, UniProt P49840); query Cc1cnccc1[C@H]1CC[C@@]2(CC1)C1=C(N=NC1)NC1=C2C(=O)CC(C)(C)C1 [US20250313563, Compound 949319]
# output < 100 nM

# input Print Glycogen synthase kinase-3 alpha (Homo sapiens, UniProt P49840) IC50 for CCC1(c2cccc(-c3cn(C)nc3C)c2)C2=C(CC(C)(C)NC2=O)NC2N=NC(C(F)F)=C21 (stereo unspecified) [US20250313563, Compound 949170] .
# output < 100 nM

# input GET IC50 where system = Glycogen synthase kinase-3 alpha (Homo sapiens, UniProt P49840) and item = CCC1(c2cccc(Br)c2)C2=C(N=NC2)NC2=C1C(=O)C(C)(C)C2 (stereo unspecified) [US20250313563, Compound 949805]
# output 100 to 1000 nM

# input Answer briefly: IC50 recorded on Glycogen synthase kinase-3 alpha (Homo sapiens, UniProt P49840) for CC[C@]1(c2cccc(-c3ccnc(C)c3)c2)C2=C(CC(C)(C)CC2=O)NC2N=NC(C(F)(F)F)=C21 (stereo partly specified) [US20250313563, Compound 917291]
# output < 100 nM

----------
A set of molecules tested on Glycogen synthase kinase-3 alpha (Homo sapiens, UniProt P49840), with measured IC50:

CC1(C)CC(=O)C2=C(C1)NC1=C(CN=N1)C21CN(C(=O)c2ccccc2)C1 [US20250313563, Compound 893315] :: > 5 µM

# input Supply recorded IC50 for CC[C@@]1(c2cccc(-c3c(F)cncc3OC)c2)C2=CN=NC2NC2=C1C(=O)CC(C)(C)C2 (stereo partly specified) [US20250313563, Compound 947512] here.
# output < 0.1 µM

# input Assign IC50 to the following record: CCC1(c2cccc(N(C)c3ccnc(C)c3)c2)C2=CN=NC2NC2=C1C(=O)CC(C)(C)C2 (stereo unspecified) [US20250313563, Compound 917149]
# output 0.1 to 1 µM

# input Provide only the value of recorded IC50 for CC1(C)CC(=O)C2=C(C1)NC1=C(CN=N1)[C@]21CCOC2(CCC2)C1 [US20250313563, Compound 897756]
# output 0.1 to 1 µM

# input Output IC50 of CC(C)(C)CC1=C2C(N=N1)NC1=C(C(=O)CC(C)(C)C1)[C@@]21COc2ccccc21 (stereo partly specified) [US20250313563, Compound 117093]
# output 1 to 5 µM

# input Answer with reported IC50 of CC1(C)CC(=O)C2=C(C1)NC1=C(CN=N1)C21CCN(S(=O)(=O)c2ccccc2C(F)(F)F)CC1 [US20250313563, Compound 945667]
# output < 0.1 µM

----------
Each entry below carries its measured IC50, system: Glycogen synthase kinase-3 alpha (Homo sapiens).

Look over these answered cases.
C[C@H]1CC[C@@]2(C1)C1=C(N=NC1)NC1=C2C(=O)CC(C)(C)C1 [US20250313563, Compound 883840] :: 100 to 1000 nM
CC[C@@]1(c2cccc(-c3cnn(C)c3)c2)C2=CN=NC2NC2=C1C(=O)CC(C)(C)[C@H]2F (stereo partly specified) [US20250313563, Compound 957510] :: 1000 to 5000 nM
CC[C@@]1(c2cccc(-c3ccncc3F)c2)C2=CN=NC2NC2=C1C(=O)NC(C)(C)C2 (stereo partly specified) [US20250313563, Compound 947869] :: < 100 nM
CC[C@]1(c2ccccc2)C2=CN=NC2NC2=C1C(=O)C[C@H](C)C2 (stereo partly specified) [US20250313563, Compound 789010] :: 100 to 1000 nM
CC1(C)CC(=O)C2=C(C1)NC1=C(CN=N1)C21CCN(S(=O)(=O)c2ccn(-c3ccccc3)n2)CC1 [US20250313563, Compound 947461] :: < 100 nM

# input Please report IC50 with Glycogen synthase kinase-3 alpha (Homo sapiens) for item CCC1(c2cccc(-c3ccnc(C)n3)c2)C2=CN=NC2NC2=C1C(=O)CC(C)(C)C2 (stereo unspecified) [US20250313563, Compound 948088] .
# output 100 to 1000 nM
